Give measured IC50 for each item. Keep answers brief.
# measured target: PIK3CA (human), P42336 [Antiproliferation of PI3K Mutated BT20 Cells]
# Sequence (P42336 whole entry, looked up, change not shown): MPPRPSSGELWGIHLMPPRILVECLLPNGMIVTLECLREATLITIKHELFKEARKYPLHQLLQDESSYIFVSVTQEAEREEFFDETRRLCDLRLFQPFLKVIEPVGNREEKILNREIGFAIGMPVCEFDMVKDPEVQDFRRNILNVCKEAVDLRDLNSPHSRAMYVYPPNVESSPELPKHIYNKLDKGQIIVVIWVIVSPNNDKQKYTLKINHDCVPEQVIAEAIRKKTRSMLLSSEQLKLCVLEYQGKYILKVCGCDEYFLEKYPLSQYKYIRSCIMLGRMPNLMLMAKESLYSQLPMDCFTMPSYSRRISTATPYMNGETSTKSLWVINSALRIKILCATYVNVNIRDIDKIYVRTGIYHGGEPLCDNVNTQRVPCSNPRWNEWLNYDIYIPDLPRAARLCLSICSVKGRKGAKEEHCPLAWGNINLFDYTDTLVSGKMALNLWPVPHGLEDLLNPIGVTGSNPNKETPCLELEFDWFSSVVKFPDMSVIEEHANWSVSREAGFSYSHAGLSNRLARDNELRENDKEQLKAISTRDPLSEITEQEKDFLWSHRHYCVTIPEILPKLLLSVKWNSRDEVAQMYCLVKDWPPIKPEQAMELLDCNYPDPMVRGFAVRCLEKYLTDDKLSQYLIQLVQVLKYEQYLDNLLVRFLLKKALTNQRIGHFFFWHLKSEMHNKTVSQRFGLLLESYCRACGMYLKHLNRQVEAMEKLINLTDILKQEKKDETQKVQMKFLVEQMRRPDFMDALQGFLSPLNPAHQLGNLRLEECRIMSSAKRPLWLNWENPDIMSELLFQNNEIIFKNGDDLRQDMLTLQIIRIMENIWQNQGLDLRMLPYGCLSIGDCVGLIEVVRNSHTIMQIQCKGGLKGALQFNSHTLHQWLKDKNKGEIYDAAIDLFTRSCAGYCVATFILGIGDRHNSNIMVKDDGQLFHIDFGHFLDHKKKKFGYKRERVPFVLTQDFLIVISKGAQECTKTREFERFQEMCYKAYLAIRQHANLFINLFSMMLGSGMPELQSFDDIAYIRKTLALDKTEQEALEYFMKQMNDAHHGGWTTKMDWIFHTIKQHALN
# measurement description: Cell-Based Assay
Numeric answer only, unit nM assumed.

Notebook: "Cc1nc(N)nc2c1cc(-c1cnn(CC(F)F)c1)c(=O)n2C1CCCC1" , IC50 read as 397

What the record says about "CNc1nc(C)c2cc(-c3cn[nH]c3)c(=O)n(C3CCCC3)c2n1" : IC50 is 2.58

IC50 reported for this compound COc1ccc(-c2cc3c(C)nc(N)nc3n(C3CCNC3)c2=O)cn1 (stereo not drawn) : 671

// Cc1nc(N)nc2c1cc(Br)c(=O)n2C1CCOC1 (stereo not drawn) : IC50 value = 1670

Reported IC50 for "Cc1nc(N)nc2c1cc(-c1ccc(OC(C)C)nc1)c(=O)n2[C@H]1CC[C@H](O)CC1" was 71.8

Kindly note the recorded IC50 for "CNc1nc(C)c2cc(C(N)=O)c(=O)n(C3CCCC3)c2n1" , which is 650

Just so you know, measured IC50 for "Cc1nc(N)nc2c1cc(-c1cccnc1N)c(=O)n2C1CCCC1" came out at 9010

Reported IC50 of "CO[C@H]1CC[C@H](n2c(=O)c(Br)cc3c(C)nc(N)nc32)CC1" : 64

---

# measured target: PIK3CA (human), P42336 [Antiproliferation of PI3K Mutated BT20 Cells]
# measurement description: Cell-Based Assay
pIC50: −log10 of the molar value.
pIC50 class ranges: low range: < 7; mid range: ≥ 7 and < 8; high range: ≥ 8

Band assignment needed for "COc1ncc(-c2cc3c(C)nc(N)nc3n([C@H]3CC[C@H](OCC(N)=O)CC3)c2=O)cn1" please. mid range

Just checking, what class would you give "COc1ccc(-c2cc3c(C)nc(N)nc3n([C@H]3C[C@H](OCCO)C3)c2=O)cn1" here? mid range

Would you mind sorting "Cc1nc(N)nc2c1cc(-c1ccc(N3CCCC3)nc1)c(=O)n2C1CCCC1" into the appropriate category? mid range

Kindly identify the class of "Cc1nc(N)nc2c1cc(-c1cn[nH]c1)c(=O)n2C1CN(C(=O)OC(C)(C)C)C1" . mid range

# bin lookup: classify Cc1nc(N)nc2c1cc(-c1cn[nH]c1)c(=O)n2C1CCOC1 (stereo not given) by its pIC50 mid range

Band for "CNc1nc(C)c2cc(-c3cccc(O)c3)c(=O)n(C3CCCC3)c2n1" ? high range

Record "Cc1nc(N)nc2c1cc(-c1cn[nH]c1)c(=O)n2[C@H]1CC[C@H](O)CC1" — which class? low range

Using the reported pIC50, which band applies to "Cc1nc(N)nc2c1cc(-c1ccc(N3CCCC3)nc1)c(=O)n2[C@H]1CC[C@H](O)CC1" ? high range

Hello team, could you let me know which band the following compound falls into: "CNc1nc(C)c2cc(-c3ncccc3F)c(=O)n(C3CCCC3)c2n1" low range

Band of "CCNc1nc(C)c2cc(CCC(=O)Nc3ccccn3)c(=O)n(C3CCCC3)c2n1" ? low range

Dear colleague, I would appreciate it if you could identify the bin for "CCNc1nc(C)c2cc(CCC(=O)OCC)c(=O)n(C3CCCC3)c2n1" and reply at your convenience. low range

Could you place "Cc1nc(N)nc2c1cc(-c1ccc3cc[nH]c3n1)c(=O)n2[C@H]1CC[C@@H](O)CC1" in its proper category? Many thanks. mid range

Please indicate the class for "CNc1nc(C)c2cc(-c3ccc(O)c(OC)c3)c(=O)n(C3CCCC3)c2n1" based on its pIC50. high range

GET /class?item= "Cc1nc(N)nc2c1cc(-c1cccc(Cl)n1)c(=O)n2C1CCCC1" low range

Just checking, what class would you give "Cc1nc(N)nc2c1cc(-c1cnc3ccccc3c1)c(=O)n2CC(C)(C)O" here? low range

Which category fits this record: "Cc1nc(N)nc2c1cc(-c1cc[nH]n1)c(=O)n2[C@H]1CC[C@H](O)CC1" mid range

Which category fits this record: "COc1ccc(-c2cc3c(C)nc(N)nc3n(CC3(F)CCOCC3)c2=O)cn1" low range

Given "COc1ccc(-c2cc3c(C)nc(N)nc3n(CC(C)(C)F)c2=O)cn1" , name the class its pIC50 places it in. low range

Quick check: band for "CCNc1nc(C)c2cc(CCC(=O)N(CC)CC)c(=O)n(C3CCCC3)c2n1" low range

Please classify: "C#Cc1cc2c(C)nc(N)nc2n(C2CCC2)c1=O" low range

# classify by pIC50 band: "COc1ccc(-c2cc3c(C)nc(N)nc3n([C@H]3CC[C@@H](O)CC3)c2=O)cn1" mid range

Which class holds "Cc1nc(N)nc2c1cc(-c1cnc3[nH]ccc3c1)c(=O)n2C1CN(C(=O)OC(C)(C)C)C1" ? low range

State the band of "CNc1nc(C)c2cc(-c3cnn(CCO)c3)c(=O)n(C3CCCC3)c2n1" low range

Band for the recorded pIC50 of "CCNc1nc(C)c2cc(CCC(=O)N(C)C)c(=O)n(C3CCCC3)c2n1" ? low range

Category lookup for the compound "COc1ncc(-c2cc3c(C)nc(N)nc3n([C@H]3CC[C@H](OCCO)CC3)c2=O)cc1F" high range

Dear colleague, I would appreciate it if you could identify the bin for COc1ccc(-c2cc3c(C)nc(N)nc3n(C3CCN(C(=O)OC(C)(C)C)C3)c2=O)cn1 (stereo not given) and reply at your convenience. low range
